measured_on: Lp-PLA2 (Homo sapiens)
Construct: aliquoted and thawed 40 μL of pooled human plasma was previously added; from tissue; host or cells: pooled human plasma
Sequence (Q13093 22-441): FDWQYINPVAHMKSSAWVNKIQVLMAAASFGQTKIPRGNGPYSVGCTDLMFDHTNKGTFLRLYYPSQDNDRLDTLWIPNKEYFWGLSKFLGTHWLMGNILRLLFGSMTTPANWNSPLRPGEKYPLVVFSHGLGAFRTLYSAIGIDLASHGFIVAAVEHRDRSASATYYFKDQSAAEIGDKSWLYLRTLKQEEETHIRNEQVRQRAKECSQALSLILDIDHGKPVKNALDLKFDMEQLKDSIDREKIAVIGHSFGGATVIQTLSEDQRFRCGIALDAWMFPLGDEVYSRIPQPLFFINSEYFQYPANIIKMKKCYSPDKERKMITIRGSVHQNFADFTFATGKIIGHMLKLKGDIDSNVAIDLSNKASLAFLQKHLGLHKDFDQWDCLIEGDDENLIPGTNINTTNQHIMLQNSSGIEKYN
protocol_details: Lipoprotein-associated phospholipase A2 (Lp-PLA2) human plasma assay (Thio-PAF assay)
Assay type: biochemical
condition_set: Lp-PLA2 human plasma assay (Thio-PAF), pooled human plasma, 30-min pre-incubation at room temperature
pIC50: −log10 of the molar value.
measurement_label: pIC50

Some compounds with known pIC50 results, for comparison:
INSERT INTO results (compound, measurement_label, data_value) VALUES
  ('O=c1nc(OCCc2ccc(Oc3ccc(Cl)c(C(F)(F)F)c3)c(F)c2)cc2n1CC13CC(CN21)C3', 'pIC50', 8.13),
  ('O=c1nc(OCc2cc(F)c(Oc3cccc(C(F)(F)F)c3)c(F)c2)cc2n1C[C@]13CO[C@H](CN21)C3', 'pIC50', 8.40),
  ('N#Cc1cc(F)cc(COc2cc3n(c(=O)n2)C[C@]24CO[C@H](CN32)C4)c1', 'pIC50', 8.21),
  ('O=c1nc(OCc2ccc(Oc3ccnc(C(F)(F)F)c3)cc2)cc2n1CC13CC(CN21)C3', 'pIC50', 7.85),
  ('COc1c(N(C)Cc2ccc(F)c(F)c2)nc(=O)n2c1N1C[C@@H]3C[C@]1(CO3)C2', 'pIC50', 7.06);

a. O=c1nc(OCc2ccc(Oc3ccc(Cl)c(C(F)(F)F)c3)c(F)c2)cc2n1CC13CC(CN21)C3
b. O=c1nc(OCc2ccc(Oc3ccc(Cl)c(C(F)(F)F)c3)cc2)cc2n1C[C@]13CO[C@H](CN21)C3
c. O=c1nc(OCc2ccc(F)c(F)c2)cc2n1CC13CC(CN21)C3
d. CC12CCCN1c1cc(OCc3ccc(Oc4ccc(F)c(C(F)(F)F)c4)nc3)nc(=O)n1C2 (stereo not drawn)
Asked: Sort ascending by pIC50. In your reply, arrange the labels in the requested order.
Given back: d, c, b, a

1. CN1C(=O)[C@]23C[C@H]1CN2c1cc(OCc2ccc(Oc4ccc(Cl)c(C(F)(F)F)c4)c(C#N)c2)nc(=O)n1C3
2. O=c1nc(OCc2ccc(Oc3ccc(C(F)(F)F)cc3)c(F)c2)cc2n1CC13CC(CN21)C3
Asked: Hi team, can someone confirm which has the larger pIC50: 1 or 2 ? Thanks. Pick one; state its label.
Given back: 1
(1: 8.44, 2: 8.19)

I. CC12CCCCN1c1cc(OCCc3ccc(Oc4ccc(Cl)c(C(F)(F)F)c4)cc3)nc(=O)n1C2 (stereo not drawn)
II. O=c1nc(OCCc2ccc(Oc3cccc(C(F)(F)F)c3)cc2)cc2n1CC13CC(CN21)C3
III. N#Cc1c(OCc2cc(F)c(Oc3ccnc(C(F)(F)F)c3)c(F)c2)nc(=O)n2c1N1C[C@@H]3C[C@]1(CO3)C2
Asked: List these items ordered by pIC50, big to small. In your reply, arrange the labels in the requested order.
Given back: I, III, II
(I: 8.32, III: 8.12, II: 7.44)

1. CC12CCCN1c1cc(OCc3cc(F)c(Oc4ccnc(OC(F)(F)F)c4)c(F)c3)nc(=O)n1C2 (stereo not drawn)
2. O=c1nc(OCc2ccc(Oc3ccc(F)c(C(F)(F)F)c3)nc2)cc2n1C[C@@]13CO[C@@H](CN21)C3
3. CCC12CCCCN1c1cc(OCc3cc(F)c(Oc4ccnc(C(F)(F)F)c4)c(F)c3)nc(=O)n1C2 (stereo not drawn)
4. O=c1nc(OCCc2ccc(Oc3ccnc(C(F)(F)F)c3)cc2)cc2n1CC13CC(CN21)C3
5. O=c1nc(OCc2ccc(Oc3ccnc(C(F)(F)F)c3)c(F)c2)c(C(F)(F)F)c2n1C[C@]13CO[C@H](CN21)C3
Asked: List these items ordered by pIC50, big to small. In your reply, arrange the labels in the requested order.
Given back: 5, 1, 4, 3, 2
